This collection of values is drawn from ChEMBL document CHEMBL4024792.

- protocol notes: Stability in human hepatocytes assessed as parent compound remaining at 10 uM after 60 mins by LC-MS/MS analysis
- Type: ADME, cell-based, Hepatocyte
- setup conditions: read-out: Stability
measure name: remaining at 1 h, 10 µM (%)
Numeric only. Scale: %

If you can, please state the reported remaining at 1 h, 10 µM value of `O=C(NO)c1ccc(CNc2cccc3cccnc23)cc1` .
86.4

----------
- measurement target: NAD-dependent protein deacetylase sirtuin-1 (Homo sapiens, UniProt Q96EB6)
- Sequence (Q96EB6 whole entry): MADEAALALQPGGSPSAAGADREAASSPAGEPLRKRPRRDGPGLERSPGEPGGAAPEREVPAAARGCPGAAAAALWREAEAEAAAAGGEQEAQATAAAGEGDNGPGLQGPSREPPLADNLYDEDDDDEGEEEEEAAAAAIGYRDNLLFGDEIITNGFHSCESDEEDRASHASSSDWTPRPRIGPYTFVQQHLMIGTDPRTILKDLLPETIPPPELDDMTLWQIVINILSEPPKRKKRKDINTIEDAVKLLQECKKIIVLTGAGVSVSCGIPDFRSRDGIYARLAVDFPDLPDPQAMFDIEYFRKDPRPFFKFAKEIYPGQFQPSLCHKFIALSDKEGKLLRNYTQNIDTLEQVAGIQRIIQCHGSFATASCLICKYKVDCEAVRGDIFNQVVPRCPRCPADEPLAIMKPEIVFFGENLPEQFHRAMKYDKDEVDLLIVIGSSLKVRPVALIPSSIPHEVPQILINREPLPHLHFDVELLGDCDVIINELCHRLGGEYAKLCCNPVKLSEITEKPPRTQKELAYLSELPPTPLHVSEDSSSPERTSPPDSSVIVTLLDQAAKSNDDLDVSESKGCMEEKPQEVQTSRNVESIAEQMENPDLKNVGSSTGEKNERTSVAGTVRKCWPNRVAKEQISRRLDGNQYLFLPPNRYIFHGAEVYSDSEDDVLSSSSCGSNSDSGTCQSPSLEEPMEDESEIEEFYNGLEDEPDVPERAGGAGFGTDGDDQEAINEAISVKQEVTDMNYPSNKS
- protocol notes: Inhibition of recombinant human N-terminal His-tagged SIRT1 (1 to 747 end residues) expressed in Escherichia coli using Ac-RHK-K(Ac)-AMC as substrate after 30 mins in presence of NAD+ by fluorescence assay
pIC50: −log10 of the molar value.
measure name: pIC50

If you can, please state the reported pIC50 value of `O=C(NO)c1ccc(CNc2cccc3ncccc23)cc1` .
< 4.70

If you can, please state the reported pIC50 value of `O=C(NO)c1ccc(CNc2cccc3cccnc23)cc1` .
< 4.70
